molecular target: T1, recombinant His-tagged human tryptase beta 1 monomer (human, UniProt Q15661 31-275); assay: SPR (BIAcore T200); IgG1 captured by anti-human Fc, His-tagged monomer injected
T1 construct: also called His6-tagged tryptase monomer; human tryptase b1 monomer
T1 sequence (Q15661 other isoform, or with tags, fused parts or gaps): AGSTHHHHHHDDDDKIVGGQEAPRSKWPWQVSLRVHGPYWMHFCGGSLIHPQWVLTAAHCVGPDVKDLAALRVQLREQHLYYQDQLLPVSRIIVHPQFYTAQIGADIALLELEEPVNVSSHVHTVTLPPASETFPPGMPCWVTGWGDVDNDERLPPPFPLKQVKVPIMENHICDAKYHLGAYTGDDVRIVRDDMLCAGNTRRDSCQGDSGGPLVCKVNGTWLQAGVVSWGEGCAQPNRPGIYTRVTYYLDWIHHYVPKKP
Each entry below lists one item and its recorded Kd value.
Please reply with the bare figure in nM and do not write the unit itself.

Consider the worked cases shown below.
# binder, data_value
measured = [
    ("huE104.v12 IgG1 (antibody, V domains shown, also called v12 (of huE104)) VH: EVQLVESGPGLVKPSETLSLTCTVSRFSLIGYAITWIRQPPGKGLEWIGGISSAATTFYSSWAKSRVTISRDTSKNQFSLKLSSVTAADTAVYYCARDPRGYGAALDRLDLWGQGTLVTVSS VL: DIQMTQSPSSLSASVGDRVTITCQSIKSVYNNRLGWYQQKPGKAPKLLIYETSILTSGVPSRFSGSGSGTDFTLTISSLQPEDFATYYCAGGFDRSGDTTFGQGTKVEIK", 0.12),
    ("huE104.v6 IgG1 (antibody, V domains shown) VH: EVQLVESGPGLVKPSETLSLTCTVSRFSLIGYAITWIRQPPGKGLEWIGGISSAATTFYSSWAKSRVTISRDTSKNQVSLKLSSVTAADTAVYYCARDPRGYGAALDRLDLWGQGTLVTVSS VL: DAQLTQSPSSLSASVGDRVTITCQSIKSVYNNRLGWYQQKPGKPPKLLIYETSILTSGVPSRFSGSGSETDFTLTISSLQPEDFATYFCAGGFDRSGDTTFGQGTKVEIK", 0.14),
]

Let's switch to this binder now.
Quick check: Kd of hu31A.v8 IgG1 (antibody, V domains shown, also called v8 (of hu31A)) VH: EVQLVESGGGLVQPGGSLRLSCAASGFTFSSFGMHWVRQAPGKGLEWVAFISSGSSTVYYADTMKGRFTISRDNSKNTLYLQMNSLRAEDTAVVYCARRDNYDWYFDVWGQGTLVTVSS VL: DIQMTQSPSSLSASVGDRVTITCSASSSVTYMYWYQQKPGKSPKPWIYRTSDLASGVPSRFSGSGSGTDFTLTISSLQPEDFATYYCQHYHSYPLTFGQGTKVEIK ?
0.94
